pIC50: −log10 of the molar value.
Observed pIC50 for GPR84 (Homo sapiens), reported per entry below.

Consider the worked cases shown below.
[
  {
    "molecule": "[2H]C(Oc1ccc2c(c1)CCn1c(OC[C@@H]3COCCO3)c([2H])c(=O)c(C)c1-2)=C(F)F [Compound 105]",
    "target.of.assay": "GPR84 (Homo sapiens)",
    "result": "7.00 to 11.00"
  },
  {
    "molecule": "Cc1c2n(c(NCC3CCCO3)cc1=O)CCc1cc(OC3CCCO3)ccc1-2 (centres unmarked) [Compound 9]",
    "target.of.assay": "GPR84 (Homo sapiens)",
    "result": "6.30 to 7.00"
  },
  {
    "molecule": "Cc1c2n(c(OC[C@@H]3COCCO3)cc1=O)CCc1ccccc1-2 [Compound 156]",
    "target.of.assay": "GPR84 (Homo sapiens)",
    "result": "6.30 to 7.00"
  },
  {
    "molecule": "Cc1c2n(c(OC[C@@H]3COCCO3)cc1=O)CCc1cc(N3CCC(F)(F)CC3)ccc1-2 [Compound 65]",
    "target.of.assay": "GPR84 (Homo sapiens)",
    "result": "7.00 to 11.00"
  },
  {
    "molecule": "COc1ccc2c(c1OC)CCn1c(NCC3CCCO3)cc(=O)cc1-2 (centres unmarked) [Compound 20]",
    "target.of.assay": "GPR84 (Homo sapiens)",
    "result": "< 6.00"
  }
]

Lab note: Cc1c2n(c(OC[C@@H]3COCCO3)cc1=O)CCc1cc(N3CC=C(C(F)(F)F)CC3)ccc1-2 [Compound 133] gave pIC50 of 7.00 to 11.00

Lab note: Cc1c2n(c(OC[C@@H]3COCCO3)cc1=O)CCc1cc(OC3CN(C(=O)C(F)(F)F)C3)ccc1-2 [Compound 119] gave pIC50 of 6.30 to 7.00

Lab note: COc1ccc2c(c1OC)CCn1c(NCC3CCCO3)cc(=O)c(C)c1-2 (centres unmarked) [Compound 10] gave pIC50 of 7.00 to 11.00

Values compiled from patent US10568879B2.
